# Experimental Target: TNKS2 (Homo sapiens (Human), UniProt Q9H2K2)
# Sequence (Q9H2K2 whole entry): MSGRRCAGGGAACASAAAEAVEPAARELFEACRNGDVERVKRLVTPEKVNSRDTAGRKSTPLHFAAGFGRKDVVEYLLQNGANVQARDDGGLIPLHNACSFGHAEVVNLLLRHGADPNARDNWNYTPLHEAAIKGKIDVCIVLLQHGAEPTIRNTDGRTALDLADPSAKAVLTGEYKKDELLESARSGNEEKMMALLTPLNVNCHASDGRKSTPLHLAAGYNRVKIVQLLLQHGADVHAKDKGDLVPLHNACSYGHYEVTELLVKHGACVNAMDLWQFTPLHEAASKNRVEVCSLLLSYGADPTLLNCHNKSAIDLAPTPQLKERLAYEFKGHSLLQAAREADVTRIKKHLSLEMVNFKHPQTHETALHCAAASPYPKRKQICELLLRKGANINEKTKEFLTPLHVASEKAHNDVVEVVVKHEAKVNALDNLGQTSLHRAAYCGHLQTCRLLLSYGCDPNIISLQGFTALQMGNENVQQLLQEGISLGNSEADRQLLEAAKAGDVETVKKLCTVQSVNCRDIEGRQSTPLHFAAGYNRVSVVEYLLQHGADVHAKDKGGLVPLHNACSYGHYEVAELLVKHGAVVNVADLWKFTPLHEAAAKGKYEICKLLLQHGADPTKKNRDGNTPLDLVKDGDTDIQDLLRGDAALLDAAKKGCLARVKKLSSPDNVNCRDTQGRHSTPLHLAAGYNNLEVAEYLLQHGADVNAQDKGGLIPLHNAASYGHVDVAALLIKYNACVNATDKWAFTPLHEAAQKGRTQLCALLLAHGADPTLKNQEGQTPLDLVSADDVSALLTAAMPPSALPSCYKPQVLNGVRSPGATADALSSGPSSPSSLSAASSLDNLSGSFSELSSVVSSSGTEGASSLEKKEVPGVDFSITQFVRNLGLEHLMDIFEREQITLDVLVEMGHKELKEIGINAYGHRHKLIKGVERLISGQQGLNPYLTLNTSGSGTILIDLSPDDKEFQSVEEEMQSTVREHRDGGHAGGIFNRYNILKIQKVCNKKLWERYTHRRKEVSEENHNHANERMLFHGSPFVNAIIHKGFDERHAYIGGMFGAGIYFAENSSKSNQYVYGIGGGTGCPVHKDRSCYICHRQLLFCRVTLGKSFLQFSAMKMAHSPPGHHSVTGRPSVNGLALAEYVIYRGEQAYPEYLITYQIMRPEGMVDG
# Procedure Text: Biochemical IC50 TNKS2
# Condition: read-out: Biochemical IC50 TNKS2
Readout Type: pIC50
The scale used: pIC50 is minus the common logarithm of the concentration in molar units.

# Query Smiles, Readout Type, Measured Result
rows = [
    ("CCOc1ccc(-c2nnc([C@H]3C[C@H](NC(=O)c4cc5sccc5[nH]4)C3)n2-c2ccccc2F)nc1", "pIC50", 8.13),
]

Ask: GET /values?readout=pIC50&system=TNKS2 (Homo sapiens (Human), UniProt Q9H2K2)&item= CCOc1ccc(-c2nnc(C34CC(NC(=O)c5ccnc6cccnc56)(C3)C4)n2-c2ccccn2)nc1
Reply: 7.89

Ask: GET /values?readout=pIC50&system=TNKS2 (Homo sapiens (Human), UniProt Q9H2K2)&item= O=C(N[C@H]1C[C@H](c2nnc(-c3ccc(OC(F)F)cn3)n2-c2ccccc2F)C1)c1cccc2nccnc12
Reply: 8.72

Ask: GET /values?readout=pIC50&system=TNKS2 (Homo sapiens (Human), UniProt Q9H2K2)&item= CCOc1ccc(-c2nnc([C@H]3C[C@H](NC(=O)c4cccc(C)n4)C3)n2-c2ccccc2F)nc1
Reply: 8.30

Ask: GET /values?readout=pIC50&system=TNKS2 (Homo sapiens (Human), UniProt Q9H2K2)&item= CCOc1ccc(-c2nnc(C34CC(NC(=O)c5ccnc6cc(F)cnc56)(C3)C4)n2-c2ccc(C)s2)nc1
Reply: 8.66

Ask: GET /values?readout=pIC50&system=TNKS2 (Homo sapiens (Human), UniProt Q9H2K2)&item= O=C(N[C@H]1C[C@H](c2nnc(-c3ccncn3)n2-c2ccccc2Cl)C1)c1ccnc2ccccc12
Reply: 6.17

Ask: GET /values?readout=pIC50&system=TNKS2 (Homo sapiens (Human), UniProt Q9H2K2)&item= CCOc1ccc(-c2nnc([C@H]3C[C@H](NC(=O)c4ccnc5cccnc45)C3)n2-c2ccccc2Cl)nc1
Reply: 8.72

Ask: GET /values?readout=pIC50&system=TNKS2 (Homo sapiens (Human), UniProt Q9H2K2)&item= O=C(N[C@H]1C[C@H](c2nnc(-c3ccc(OC(F)F)cn3)n2-c2ccccc2F)C1)c1ccc2cnccc2n1
Reply: 8.47

Ask: GET /values?readout=pIC50&system=TNKS2 (Homo sapiens (Human), UniProt Q9H2K2)&item= CCOc1ccc(-c2nnc([C@H]3C[C@H](NC(=O)c4ccnc5cccnc45)C3)n2-c2ccncc2)nc1
Reply: 8.27

Ask: GET /values?readout=pIC50&system=TNKS2 (Homo sapiens (Human), UniProt Q9H2K2)&item= O=C(N[C@H]1C[C@H](c2nnc(-c3ccncn3)n2-c2ccccc2Cl)C1)c1ccc(F)cn1
Reply: 8.57

Ask: GET /values?readout=pIC50&system=TNKS2 (Homo sapiens (Human), UniProt Q9H2K2)&item= N#Cc1cccc(C(=O)N[C@H]2C[C@H](c3nnc(-c4ccncn4)n3-c3ccccc3Cl)C2)c1
Reply: 8.18

----------
# Test system: HEK293
# Procedure Text: Cellular IC50 HEK293
# Type: cell-based
# Condition: Homo sapiens, HEK293, read-out: Cellular IC50 HEK293
# Excerpt: XLfit (idbs) was used to determine the IC50-values in inhibition experiments. The following formula was chosen to fit the data points (Langmuir Binding Isotherm): fit=((A+(B*x))+4(C−B)*(1−exp((−1*D)*x)))/D)), res=(y−fit)
Readout Type: pIC50
The scale used: pIC50 is minus the common logarithm of the concentration in molar units.

Guide cases for pIC50, answers given:
# Query Smiles, Experimental Target, pIC50
data = [
    ("Cc1cccc(-c2nnc([C@H]3C[C@H](NC(=O)c4cccc5nccnc45)C3)n2-c2ccccc2F)n1", "HEK293", 8.82),
    ("O=C(N[C@H]1C[C@H](c2nnc(-c3ccccc3)n2-c2ccccc2F)C1)c1ccccn1", "HEK293", 6.10),
    ("O=C(N[C@H]1C[C@H](c2nnc(-c3ccccn3)n2-c2ccccc2F)C1)c1cccc2nccnc12", "HEK293", 9.54),
    ("CCOc1ccc(-c2nnc([C@H]3C[C@H](NC(=O)c4ccnc5cccnc45)C3)n2-c2ccncc2)nc1", "HEK293", 7.89),
]

Ask: Please report the recorded pIC50 for CCOc1ccc(-c2nnc([C@H]3C[C@H](NC(=O)c4ccnc5cccnc45)C3)n2-c2ccc(C)s2)nc1 .
Reply: 9.09

Ask: Please report the recorded pIC50 for CCOc1ccc(-c2nnc([C@H]3C[C@H](NC(=O)c4cccc5cccnc45)C3)n2-c2ccc(C)s2)nc1 .
Reply: 9.00

Ask: Please report the recorded pIC50 for O=C(N[C@H]1C[C@H](c2nnc(-c3ccc(OC(F)F)cn3)n2-c2ccccc2F)C1)c1cc(F)cc2nccnc12 .
Reply: 9.29

Just for reference, patent US11926614B2 is where these values come from.
